# tgt: CDK8/Cyclin C (Homo sapiens)
# protocol_summary: Inhibition of CDK8/CCNC (unknown origin) using RBER-IRStide as substrate in presence of [gamma33P]ATP by radiometric method
# Format: protein-complex assay
observable: IC50

1) N#Cc1ccc2ncnc(NCCc3ccccc3)c2c1    280 nM

----------
# tgt: Rho-associated protein kinase 1 (Homo sapiens, UniProt Q13464)
# Sequence (Q13464 whole entry): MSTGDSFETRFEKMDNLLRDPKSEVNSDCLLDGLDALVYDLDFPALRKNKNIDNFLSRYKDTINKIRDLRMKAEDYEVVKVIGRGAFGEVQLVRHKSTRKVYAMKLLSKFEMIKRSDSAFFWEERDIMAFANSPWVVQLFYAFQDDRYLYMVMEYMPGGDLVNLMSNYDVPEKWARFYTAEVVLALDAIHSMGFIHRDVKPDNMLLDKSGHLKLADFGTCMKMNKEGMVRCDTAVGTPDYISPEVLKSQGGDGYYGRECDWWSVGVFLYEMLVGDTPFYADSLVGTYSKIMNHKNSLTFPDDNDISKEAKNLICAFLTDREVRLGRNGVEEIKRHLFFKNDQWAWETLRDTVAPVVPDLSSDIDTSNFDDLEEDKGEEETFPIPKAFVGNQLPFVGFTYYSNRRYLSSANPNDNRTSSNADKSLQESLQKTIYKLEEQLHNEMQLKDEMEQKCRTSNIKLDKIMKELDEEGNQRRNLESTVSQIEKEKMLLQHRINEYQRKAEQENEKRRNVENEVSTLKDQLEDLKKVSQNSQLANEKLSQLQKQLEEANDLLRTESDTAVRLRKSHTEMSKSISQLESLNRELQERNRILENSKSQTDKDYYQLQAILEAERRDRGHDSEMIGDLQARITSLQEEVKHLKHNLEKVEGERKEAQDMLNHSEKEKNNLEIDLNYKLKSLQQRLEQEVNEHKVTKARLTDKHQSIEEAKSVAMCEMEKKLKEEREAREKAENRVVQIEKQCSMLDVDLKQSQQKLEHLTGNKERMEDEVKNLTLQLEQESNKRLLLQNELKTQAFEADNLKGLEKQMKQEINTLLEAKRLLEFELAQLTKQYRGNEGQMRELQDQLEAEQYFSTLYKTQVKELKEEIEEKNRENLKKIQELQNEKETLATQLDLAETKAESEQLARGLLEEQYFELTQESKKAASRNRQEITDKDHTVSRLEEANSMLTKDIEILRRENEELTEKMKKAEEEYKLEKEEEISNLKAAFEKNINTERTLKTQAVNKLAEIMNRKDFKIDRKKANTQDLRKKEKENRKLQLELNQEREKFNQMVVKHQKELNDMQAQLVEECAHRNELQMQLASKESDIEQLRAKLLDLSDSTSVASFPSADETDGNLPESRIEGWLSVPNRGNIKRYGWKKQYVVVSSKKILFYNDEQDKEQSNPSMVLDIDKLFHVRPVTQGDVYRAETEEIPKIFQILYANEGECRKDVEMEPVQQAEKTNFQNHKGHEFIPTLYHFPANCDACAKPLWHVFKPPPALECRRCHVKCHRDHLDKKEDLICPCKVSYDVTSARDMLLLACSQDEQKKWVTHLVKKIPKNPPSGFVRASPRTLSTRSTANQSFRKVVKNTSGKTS
observable: IC50

1) CN(C)[C@H]1C[C@@]23CC[C@@]4(O2)C(=CC[C@]2(C)[C@@H](c5ccc6ccncc6c5)CC[C@H]24)C=C3[C@@H](O)[C@@H]1O    250 nM

----------
# tgt: Rho-associated protein kinase 2 (Homo sapiens)
# Sequence (O75116 whole entry): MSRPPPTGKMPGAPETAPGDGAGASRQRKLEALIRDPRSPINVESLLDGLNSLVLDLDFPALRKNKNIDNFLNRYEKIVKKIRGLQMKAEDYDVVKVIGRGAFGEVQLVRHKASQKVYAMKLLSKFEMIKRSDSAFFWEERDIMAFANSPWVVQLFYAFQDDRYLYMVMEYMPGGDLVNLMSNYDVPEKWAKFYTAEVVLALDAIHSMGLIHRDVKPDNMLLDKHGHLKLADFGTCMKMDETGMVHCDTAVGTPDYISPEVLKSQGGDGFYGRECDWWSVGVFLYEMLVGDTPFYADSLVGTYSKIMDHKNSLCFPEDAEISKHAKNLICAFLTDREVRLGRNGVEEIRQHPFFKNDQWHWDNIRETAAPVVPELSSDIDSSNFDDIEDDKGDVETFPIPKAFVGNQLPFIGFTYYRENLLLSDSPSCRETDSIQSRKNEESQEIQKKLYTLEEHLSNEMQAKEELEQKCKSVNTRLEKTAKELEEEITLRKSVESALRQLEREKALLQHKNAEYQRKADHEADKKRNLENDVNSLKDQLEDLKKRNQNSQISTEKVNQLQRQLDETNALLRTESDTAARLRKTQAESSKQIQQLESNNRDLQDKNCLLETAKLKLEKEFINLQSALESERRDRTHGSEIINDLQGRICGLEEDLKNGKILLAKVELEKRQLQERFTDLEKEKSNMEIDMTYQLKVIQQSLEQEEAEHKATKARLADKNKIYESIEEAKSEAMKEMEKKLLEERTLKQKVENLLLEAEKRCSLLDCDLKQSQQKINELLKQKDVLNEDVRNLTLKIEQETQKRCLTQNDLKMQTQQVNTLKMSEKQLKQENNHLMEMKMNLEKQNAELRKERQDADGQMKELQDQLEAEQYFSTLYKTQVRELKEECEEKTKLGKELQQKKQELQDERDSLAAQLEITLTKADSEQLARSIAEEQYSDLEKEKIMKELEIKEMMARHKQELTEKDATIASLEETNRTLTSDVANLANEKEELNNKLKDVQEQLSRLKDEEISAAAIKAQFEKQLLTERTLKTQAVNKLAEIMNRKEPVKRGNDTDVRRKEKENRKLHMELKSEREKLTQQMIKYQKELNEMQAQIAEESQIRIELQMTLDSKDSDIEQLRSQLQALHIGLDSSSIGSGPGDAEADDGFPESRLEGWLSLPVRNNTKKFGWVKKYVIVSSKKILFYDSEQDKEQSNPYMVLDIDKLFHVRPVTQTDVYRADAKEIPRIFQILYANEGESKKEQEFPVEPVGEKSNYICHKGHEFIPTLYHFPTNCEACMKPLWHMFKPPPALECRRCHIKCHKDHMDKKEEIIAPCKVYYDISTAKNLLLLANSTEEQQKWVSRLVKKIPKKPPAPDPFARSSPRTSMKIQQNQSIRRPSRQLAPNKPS
# protocol_summary: Inhibition of ROCK2 (unknown origin)
pIC50: −log10 of the molar value.
observable: pIC50

1. CN(C)[C@H]1C[C@@]23CC[C@@]4(O2)C(=CC[C@]2(C)[C@@H](c5ccc6ccncc6c5)CC[C@H]24)C=C3[C@@H](O)[C@@H]1O    6.66

----------
# tgt: CDK8/Cyclin C (Homo sapiens, UniProt P49336)
# Sequence (P49336 whole entry): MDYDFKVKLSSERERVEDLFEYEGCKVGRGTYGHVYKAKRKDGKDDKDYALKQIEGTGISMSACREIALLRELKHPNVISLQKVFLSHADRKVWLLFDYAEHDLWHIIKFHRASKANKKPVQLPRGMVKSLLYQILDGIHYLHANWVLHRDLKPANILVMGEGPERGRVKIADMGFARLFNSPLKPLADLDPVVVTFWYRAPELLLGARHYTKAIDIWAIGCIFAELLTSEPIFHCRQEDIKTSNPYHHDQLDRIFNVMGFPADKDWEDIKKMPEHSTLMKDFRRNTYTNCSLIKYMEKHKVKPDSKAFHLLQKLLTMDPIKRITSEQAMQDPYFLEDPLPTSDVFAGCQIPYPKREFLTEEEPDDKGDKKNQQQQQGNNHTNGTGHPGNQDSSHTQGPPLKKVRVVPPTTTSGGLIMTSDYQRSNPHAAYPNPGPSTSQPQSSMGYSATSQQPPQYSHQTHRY
# Sequence (P24863 whole entry, further chain): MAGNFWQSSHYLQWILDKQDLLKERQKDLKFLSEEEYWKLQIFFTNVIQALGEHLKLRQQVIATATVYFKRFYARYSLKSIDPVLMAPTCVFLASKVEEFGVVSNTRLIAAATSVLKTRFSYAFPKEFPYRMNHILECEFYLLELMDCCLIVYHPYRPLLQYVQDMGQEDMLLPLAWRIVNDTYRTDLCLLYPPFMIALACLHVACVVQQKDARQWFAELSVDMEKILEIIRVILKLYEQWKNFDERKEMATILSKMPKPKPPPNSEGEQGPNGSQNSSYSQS
# protocol_summary: Inhibition of CDK8/Cyclin-C (unknown origin) in presence of [gamma33P]ATP by radiometric method
# Assay type: protein-complex assay
pIC50: −log10 of the molar value.
observable: pIC50

1) Cc1c(Br)c(Br)c2c3c1nc(N1CCNCC1)n3CCC2 [SEL-120 FREE BASE]    8.40

----------
# tgt: Cyclin-dependent kinase 19 (Homo sapiens, UniProt Q9BWU1)
# Sequence (Q9BWU1 whole entry): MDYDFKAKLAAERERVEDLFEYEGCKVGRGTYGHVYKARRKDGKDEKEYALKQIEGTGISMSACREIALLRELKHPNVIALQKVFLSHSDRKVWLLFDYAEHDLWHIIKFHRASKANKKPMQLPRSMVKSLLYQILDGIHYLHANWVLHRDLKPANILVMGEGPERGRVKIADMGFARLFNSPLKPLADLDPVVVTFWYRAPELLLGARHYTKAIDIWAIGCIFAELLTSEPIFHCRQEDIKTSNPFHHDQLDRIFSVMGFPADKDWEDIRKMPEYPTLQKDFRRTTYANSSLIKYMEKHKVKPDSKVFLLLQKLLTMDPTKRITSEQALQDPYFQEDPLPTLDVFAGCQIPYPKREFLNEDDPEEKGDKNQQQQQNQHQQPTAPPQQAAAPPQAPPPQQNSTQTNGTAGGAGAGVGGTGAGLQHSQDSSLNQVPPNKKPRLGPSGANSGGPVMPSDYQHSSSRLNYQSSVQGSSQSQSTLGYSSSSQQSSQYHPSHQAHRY
# protocol_summary: Inhibition of CDK19 (unknown origin)
observable: IC50 (µM)

1. CC1CCc2nc(N)c(C#N)c(-c3cccnc3)c2C1 (stereo unspecified)    30

----------
# tgt: Cyclin-dependent kinase 8/Cyclin-C (Mus musculus)
# Sequence (Q8R3L8 whole entry): as the sequence (P49336 whole entry) above, with Q82L, D366E, N372T, S394G, T396A counted along it
# Sequence (Q62447 whole entry, further chain): as the sequence (P24863 whole entry, further chain) above, with A112T, M171V counted along it
# protocol_summary: Inhibition of CDK8/Cyclin-C in R848-stimulated mouse BMDC assessed as upregulation of IL-10 level
observable: EC50 (nM)

1) CC1CCc2nc(N)c(C#N)c(-c3cccnc3)c2C1 (stereo unspecified)    1400

----------
# tgt: Cyclin-C/Cyclin-dependent kinase 19 (Homo sapiens)
# Sequence (Q9BWU1 whole entry): as the sequence (Q9BWU1 whole entry) above
# Sequence (P24863 whole entry, further chain): as the sequence (P24863 whole entry, further chain) above
# protocol_summary: Inhibition of CDK19/Cyclin-C (unknown origin) in presence of [gamma33P]ATP by radiometric method
observable: IC50 (nM)

1) Cc1c(Br)c(Br)c2c3c1nc(N1CCNCC1)n3CCC2 [SEL-120 FREE BASE]    10
